// provenance: patent US12077506B2

# ASSAYED_SYSTEM: HIF-2α (Homo sapiens (Human))
# ASSAY_DETAILS: VEGF ELISA Assay
# Format: cell-based
# CONDITION_DESCRIPTION: VEGF expression in 786-O cells, ELISA of culture medium; read-out: EC50
pEC50: −log10 of the molar value.
Criterion: pEC50 meeting or surpassing 7. Met: yes. Not met: no.

COMPOUND | CLASSIFICATION
N#Cc1cc(F)cc(Oc2ccc3c(c2C(F)F)C(O)C(F)(F)C3(F)F)c1 (stereo not drawn) | yes
N#Cc1cc(Cl)cc(Oc2ccc3c(c2C(F)F)C(O)C(F)(F)C3(F)F)c1 (stereo not drawn) | yes
CC1(O)c2c(ccc(Oc3cc(F)cc(C#N)c3)c2C(F)F)C(F)(F)C1(F)F (stereo not drawn) | no
CC1(O)c2c(ccc(Oc3cc(F)cc(C#N)c3)c2C#N)C(F)(F)C1(F)F (stereo not drawn) | no
CCc1c(Oc2cc(F)cc(C#N)c2)ccc2c1C(C)(O)C(F)(F)C2(F)F (stereo not drawn) | no

---

# ASSAYED_SYSTEM: HIF-2α (Homo sapiens (Human), UniProt Q99814)
# Sequence (Q99814 whole entry): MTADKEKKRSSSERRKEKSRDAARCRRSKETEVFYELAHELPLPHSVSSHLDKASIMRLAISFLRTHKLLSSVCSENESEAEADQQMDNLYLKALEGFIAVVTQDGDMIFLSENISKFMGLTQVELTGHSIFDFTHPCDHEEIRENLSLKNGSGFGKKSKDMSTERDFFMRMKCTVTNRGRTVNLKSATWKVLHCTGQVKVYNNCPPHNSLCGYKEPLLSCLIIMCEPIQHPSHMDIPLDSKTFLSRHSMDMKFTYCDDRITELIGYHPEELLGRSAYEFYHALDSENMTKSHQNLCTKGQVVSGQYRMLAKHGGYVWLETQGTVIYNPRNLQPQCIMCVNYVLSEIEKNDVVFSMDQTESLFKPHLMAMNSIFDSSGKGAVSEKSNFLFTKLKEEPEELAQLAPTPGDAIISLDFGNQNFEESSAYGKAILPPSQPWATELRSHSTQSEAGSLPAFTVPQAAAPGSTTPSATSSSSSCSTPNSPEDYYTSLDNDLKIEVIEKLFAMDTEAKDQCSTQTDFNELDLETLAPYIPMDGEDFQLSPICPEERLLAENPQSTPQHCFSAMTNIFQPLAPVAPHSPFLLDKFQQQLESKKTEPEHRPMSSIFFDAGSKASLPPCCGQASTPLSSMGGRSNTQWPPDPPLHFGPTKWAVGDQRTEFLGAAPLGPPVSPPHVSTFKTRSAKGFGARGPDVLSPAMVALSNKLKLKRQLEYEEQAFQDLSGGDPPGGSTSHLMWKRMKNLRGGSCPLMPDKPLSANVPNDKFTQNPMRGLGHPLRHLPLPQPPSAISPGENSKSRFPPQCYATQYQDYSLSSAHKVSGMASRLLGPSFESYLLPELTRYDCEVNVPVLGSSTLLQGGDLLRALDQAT
# ASSAY_DETAILS: VEGF ELISA Assay
# Type: cell-based
# CONDITION_DESCRIPTION: VEGF expression in 786-O cells, ELISA of culture medium; read-out: EC50
VALUE_KIND: EC50 (nM)

MOLECULE | REPORTED_RESULT
Cc1cc(C#N)cc(Oc2ccc3c(c2C(F)F)C(O)C(F)(F)C3(F)F)c1 (stereo not shown) [I-5] | 67
OC1c2c(ccc(OC3CC(F)(F)C3)c2C(F)F)C(F)(F)C1(F)F (stereo not shown) [I-8] | 105
N#Cc1cncc(Oc2ccc3c(c2C(F)F)C(O)C(F)(F)C3(F)F)c1 (stereo not shown) [I-9] | 147
N#Cc1cc(F)cc(Oc2ccc3c(c2C(F)F)C(O)C(F)(F)C3F)c1 (stereo not shown) [I-19] | 151
